B1: IMPA1 (parent)
chain: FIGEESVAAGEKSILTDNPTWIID

Variants of: B1
experimental protocol: protein stability index of a GFP-peptide fusion (GPS, HEK-293T) (PSI 1-6); higher = more stable;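 further: lentivirally expressed fusions sorted by FACS into six bins by GFP to DsRed ratio, PSI derived from sequencing read proportions per bin multiplied by bin number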
assay context: c terminus: a fixed tail appended
Rule: protein stability index of 2 or more gives Condition met; anything lower gives Condition not met.

## Task State whether the measured protein stability index reaches 2, counting equality as reaching it, for S6P
## Result Condition met

## Task State whether the measured protein stability index reaches 2, counting equality as reaching it, for K12M
## Result Condition met

## Task State whether the measured protein stability index reaches 2, counting equality as reaching it, for G3L
## Result Condition not met

## Task State whether the measured protein stability index reaches 2, counting equality as reaching it, for A8H
## Result Condition not met

## Task State whether the measured protein stability index reaches 2, counting equality as reaching it, for G10H
## Result Condition not met

## Task State whether the measured protein stability index reaches 2, counting equality as reaching it, for K12D
## Result Condition met

## Task State whether the measured protein stability index reaches 2, counting equality as reaching it, for D17S
## Result Condition not met

## Task State whether the measured protein stability index reaches 2, counting equality as reaching it, for G10L
## Result Condition met
